Value source: the RNAGym collection of RNA variant scans (doi:10.7554/elife.80360)

B1: CPEB3 Ribozyme (parent)
chain: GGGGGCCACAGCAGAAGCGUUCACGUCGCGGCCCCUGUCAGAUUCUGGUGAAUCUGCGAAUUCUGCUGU

# Variants of: B1
# PROTOCOL_NOTES: self-cleavage, relative activity (ratio to wild type); higher = more cleavage; co-transcriptional
TEST_READOUT: self-cleavage
Numbers only.

Example results:
self-cleavage lookup needed for GGGGUCAACAGCAGAAGCGUUCACGUCGCGGCCCCUGUCAGAUUCUGGUGAAUCUGCGAAUUCUGCUGU [G5U C7A] , thanks.
0.086

# self-cleavage lookup, item GGGGGCCACAGCACAAGCGUUCACGUCGCGGCCCCAGUCAGAUUCUGGUGAAUCUGCGAAUUCUGCUGU [G14C U36A]
0.109

Give self-cleavage for each of the items listed below.
1. GGGGGCCACAGCCGAAGCGUCCACGUCGCGGCCCCUGUCAGAUUCUGGUGAAUCUGCGAAUUCUGCUGU [A13C U21C]
2. GGGGGCCACAGCAGAAGCGUUCACGUCGCGGCCCCUGUCAGAUUCUGCUGAAUCUGCGAUUUCUGCUGU [G48C A60U]
3. GGGGGCCACAGCAGAAGCGUUCACGUCGGGGCCCCUGUAAGAUUCUGGUGAAUCUGCGAAUUCUGCUGU [C29G C39A]
4. GGGGGCCACUGCAGAAGCGUUCACGUCGCGGCCCCUGUCAAAUUCUGGUGAAUCUGCGAAUUCUGCUGU [A10U G41A]
5. GGGGGCCACAGCAGAAGCGUUCACGUCGCGGCCCGUGUCAGAUUCUGGUGAAUCUUCGAAUUCUGCUGU [C35G G56U]
6. GGGGGCCACAGCAGAAGCGUUCACGUCGCUGCCCCUGUCAGAAUCUGGUGAAUCUGCGAAUUCUGCUGU [G30U U43A]
7. GGGGGCCACAGCAGCAGUGUUCACGUCGCGGCCCCUGUCAGAUUCUGGUGAAUCUGCGAAUUCUGCUGU [A15C C18U]
8. GGGGGCCACAGGAGAAGCGUUCACGUCGCGGCCCCUGUCAGAUUCUGGUGAAUUUGCGAAUUCUGCUGU [C12G C54U]

[0.496, 0.552, 0.213, 0.844, 0.307, 0.311, 0.296, 0.828]

List self-cleavage for every entry below, keeping the order given.
1. GGGGGCCACAGCAGAAGCGUUCACGUCGCGGCCCCUGUCAGAUUCUGGUGAGUCUGCGAAUUCGGCUGU [A52G U64G]
2. GGGGGCCACAGCAGAAGCGUUCACGUCGCGGCCCCUGUCAGAUUCUAGUGAAUCUGCAAAUUCUGCUGU [G47A G58A]
3. GGGGGCCGCAGCAGAAGCGUUCACGCCGCGGCCCCUGUCAGAUUCUGGUGAAUCUGCGAAUUCUGCUGU [A8G U26C]
4. GGGGGCCACAGCUGAAGCGUUCACGUCGCGGCCCCUGUCAGAUUCUUGUGAAUCUGCGAAUUCUGCUGU [A13U G47U]
5. GGGGGCCACAGCAGAAGGGUUCACGUCGCGGCCCCUGUCAGAUUUUGGUGAAUCUGCGAAUUCUGCUGU [C18G C45U]
6. GGGGGCCACAGCAGAAGCGUUCUCGUCGCUGCCCCUGUCAGAUUCUGGUGAAUCUGCGAAUUCUGCUGU [A23U G30U]
7. GGGGGCCACAGCAGUAGCGUUCACGUCGCGGCCCCUGUCAGAUUCUGGUGAAUCAGCGAAUUCUGCUGU [A15U U55A]
8. GGGGGCCACAGCCGAAGCGUUCACGUCGCGGCCGCUGUCAGAUUCUGGUGAAUCUGCGAAUUCUGCUGU [A13C C34G]

0.957
0.96
0.325
0.881
0.183
0.547
0.412
0.498

For each entry beneath this line, provide reported self-cleavage.
1. GGGGGCCACAGCAGAAGCGUUCACGUCGCGGCCCCUGUCACAUUCUGGUGACUCUGCGAAUUCUGCUGU [G41C A52C]
2. GGGGGCCACAGCAGAAGCGUUCACGUCGCUGCCCCUGUCAGAUUCUGGCGAAUCUGCGAAUUCUGCUGU [G30U U49C]
3. GGGGGACACAGCAGAAGCGUUAACGUCGCGGCCCCUGUCAGAUUCUGGUGAAUCUGCGAAUUCUGCUGU [C6A C22A]
4. GGGGGCCACAGCAGAAGCGGUCACGUCGCGGCCCGUGUCAGAUUCUGGUGAAUCUGCGAAUUCUGCUGU [U20G C35G]

[0.332, 0.456, 0.165, 0.184]
